B1: RHOBTB3 (parent)
chain: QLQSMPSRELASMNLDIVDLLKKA

Variants of: B1
MEASUREMENT DESCRIPTION: protein stability index of a GFP-peptide fusion (GPS, HEK-293T) (PSI 1-6); higher = more stable;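 also: lentivirally expressed fusions sorted by FACS into six bins by GFP to DsRed ratio, PSI derived from sequencing read proportions per bin multiplied by bin number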
ASSAY SETUP: c terminus: a fixed tail appended
Measured protein stability index by item
PARAMETER MEASURED: protein stability index

[[record]]
mutation_annotation = "S7H"
readout_value = 4.55

[[record]]
mutation_annotation = "K23Q"
readout_value = 3.36

[[record]]
mutation_annotation = "M5K"
readout_value = 4.06

[[record]]
mutation_annotation = "E9C"
readout_value = 2.7

[[record]]
mutation_annotation = "Q1L"
readout_value = 2.55

[[record]]
mutation_annotation = "I17Y"
readout_value = 3.74

[[record]]
mutation_annotation = "L21T"
readout_value = 3.74

[[record]]
mutation_annotation = "E9K"
readout_value = 2.27

[[record]]
mutation_annotation = "S12Q"
readout_value = 4.1

[[record]]
mutation_annotation = "V18R"
readout_value = 2.73

[[record]]
mutation_annotation = "D19F"
readout_value = 2.01

[[record]]
mutation_annotation = "I17Q"
readout_value = 4.55

[[record]]
mutation_annotation = "M5C"
readout_value = 3.23

[[record]]
mutation_annotation = "S4C"
readout_value = 3.54

[[record]]
mutation_annotation = "L10C"
readout_value = 3.62

[[record]]
mutation_annotation = "M5P"
readout_value = 3.54

[[record]]
mutation_annotation = "Q3P"
readout_value = 4.39

[[record]]
mutation_annotation = "E9N"
readout_value = 3.4

[[record]]
mutation_annotation = "D19C"
readout_value = 2.96

[[record]]
mutation_annotation = "L21Q"
readout_value = 3.87

[[record]]
mutation_annotation = "S4I"
readout_value = 3.78

[[record]]
mutation_annotation = "Q1H"
readout_value = 2.92

[[record]]
mutation_annotation = "K22E"
readout_value = 4.71

[[record]]
mutation_annotation = "L15G"
readout_value = 3.99

[[record]]
mutation_annotation = "D16H"
readout_value = 2.76

[[record]]
mutation_annotation = "M13Y"
readout_value = 3.17

[[record]]
mutation_annotation = "S7W"
readout_value = 5

[[record]]
mutation_annotation = "I17V"
readout_value = 3.89

[[record]]
mutation_annotation = "L20Q"
readout_value = 3.9

[[record]]
mutation_annotation = "L21W"
readout_value = 3.35

[[record]]
mutation_annotation = "K23C"
readout_value = 2.57

[[record]]
mutation_annotation = "Q1E"
readout_value = 3.01

[[record]]
mutation_annotation = "S4M"
readout_value = 3.28

[[record]]
mutation_annotation = "L2P"
readout_value = 4.72

[[record]]
mutation_annotation = "L20V"
readout_value = 2.9

[[record]]
mutation_annotation = "D19G"
readout_value = 2.52

[[record]]
mutation_annotation = "Q1C"
readout_value = 2.86

[[record]]
mutation_annotation = "L20I"
readout_value = 3.42

[[record]]
mutation_annotation = "V18T"
readout_value = 3.77

[[record]]
mutation_annotation = "E9Q"
readout_value = 2.7

[[record]]
mutation_annotation = "A24P"
readout_value = 3.92

[[record]]
mutation_annotation = "S7R"
readout_value = 4.13

[[record]]
mutation_annotation = "L10Q"
readout_value = 3.63

[[record]]
mutation_annotation = "L10M"
readout_value = 3.58

[[record]]
mutation_annotation = "L21I"
readout_value = 3.56

[[record]]
mutation_annotation = "K22W"
readout_value = 2.04

[[record]]
mutation_annotation = "S12I"
readout_value = 3.02

[[record]]
mutation_annotation = "M5D"
readout_value = 3.78

[[record]]
mutation_annotation = "M5T"
readout_value = 3.94

[[record]]
mutation_annotation = "R8F"
readout_value = 2.65

[[record]]
mutation_annotation = "S12T"
readout_value = 3.75

[[record]]
mutation_annotation = "Q1M"
readout_value = 3.38

[[record]]
mutation_annotation = "L15M"
readout_value = 3.86

[[record]]
mutation_annotation = "E9I"
readout_value = 2.44

[[record]]
mutation_annotation = "N14Y"
readout_value = 2.68

[[record]]
mutation_annotation = "A24N"
readout_value = 4.14

[[record]]
mutation_annotation = "I17T"
readout_value = 3.58

[[record]]
mutation_annotation = "L15W"
readout_value = 2.88

[[record]]
mutation_annotation = "L20T"
readout_value = 3.96

[[record]]
mutation_annotation = "S12W"
readout_value = 2.5

[[record]]
mutation_annotation = "Q3E"
readout_value = 3.7

[[record]]
mutation_annotation = "K23H"
readout_value = 3.05

[[record]]
mutation_annotation = "S4Y"
readout_value = 3.75

[[record]]
mutation_annotation = "L2A"
readout_value = 3.21

[[record]]
mutation_annotation = "S12M"
readout_value = 3.24

[[record]]
mutation_annotation = "M13N"
readout_value = 4.17

[[record]]
mutation_annotation = "L20Y"
readout_value = 3.95

[[record]]
mutation_annotation = "P6C"
readout_value = 2.5

[[record]]
mutation_annotation = "E9M"
readout_value = 2.31

[[record]]
mutation_annotation = "V18C"
readout_value = 3.69

[[record]]
mutation_annotation = "D19P"
readout_value = 2.83

[[record]]
mutation_annotation = "M5F"
readout_value = 3.33

[[record]]
mutation_annotation = "P6H"
readout_value = 2.05

[[record]]
mutation_annotation = "S4G"
readout_value = 3.82

[[record]]
mutation_annotation = "R8Q"
readout_value = 3.85

[[record]]
mutation_annotation = "D16S"
readout_value = 3.23

[[record]]
mutation_annotation = "L15R"
readout_value = 3.58

[[record]]
mutation_annotation = "I17A"
readout_value = 3.63

[[record]]
mutation_annotation = "L15V"
readout_value = 3.35

[[record]]
mutation_annotation = "L15E"
readout_value = 3.94

[[record]]
mutation_annotation = "P6V"
readout_value = 2.14

[[record]]
mutation_annotation = "S4A"
readout_value = 3

[[record]]
mutation_annotation = "S7I"
readout_value = 2.42

[[record]]
mutation_annotation = "I17P"
readout_value = 3.39

[[record]]
mutation_annotation = "K23D"
readout_value = 4.03

[[record]]
mutation_annotation = "S7N"
readout_value = 2.98

[[record]]
mutation_annotation = "L2D"
readout_value = 4

[[record]]
mutation_annotation = "D16K"
readout_value = 2.91

[[record]]
mutation_annotation = "M13G"
readout_value = 3.76

[[record]]
mutation_annotation = "M5A"
readout_value = 3.04

[[record]]
mutation_annotation = "M5N"
readout_value = 2.78

